- Tested on: MCF7
- assay_explanation: Cytotoxicity against human MCF7 cells after 72 hrs by MTT assay
- Type: functional, cell-based
- condition_description: MCF7, 72 h
readout: pIC50
One number for each entry, as −log10 of the molar value.

Take a look at these entries with their results.
| given_smiles | experimental_system | pIC50 |
| --- | --- | --- |
| COC(=O)[C@]12CC[C@@H](C)[C@H](C)[C@H]1C1=CC[C@@H]3[C@@]4(C)C/C(=C/n5ccnc5)C(=O)C(C)(C)[C@@H]4CC[C@@]3(C)[C@]1(C)CC2 | MCF7 | 5.28 |
| COC(=O)[C@]12CC[C@@H](C)[C@H](C)[C@H]1C1=CC[C@@H]3[C@@]4(C)C/C(=C/n5cnnc5)C(=O)C(C)(C)[C@@H]4CC[C@@]3(C)[C@]1(C)CC2 | MCF7 | 5.64 |
| COC(=O)[C@]12CC[C@@H](C)[C@H](C)[C@H]1C1=CC[C@@H]3[C@@]4(C)C/C(=C/n5ccnc5C)C(=O)C(C)(C)[C@@H]4CC[C@@]3(C)[C@]1(C)CC2 | MCF7 | 5.66 |
| C[C@H]1[C@H](C)CC[C@]2(C(=O)O)CC[C@]3(C)C(=CC[C@@H]4[C@@]5(C)CC[C@H](O)C(C)(C)[C@@H]5CC[C@]43C)[C@H]12 | MCF7 | 4.91 |
| COC(=O)[C@]12CC[C@@H](C)[C@H](C)[C@H]1C1=CC(=O)[C@@H]3[C@@]4(C)C/C(=C/n5ccnc5)C(=O)C(C)(C)[C@@H]4CC[C@@]3(C)[C@]1(C)CC2 | MCF7 | 5.03 |

Give pIC50 for each listed item.
1. COC(=O)[C@]12CC[C@@H](C)[C@H](C)[C@H]1C1=CC(=O)[C@@H]3[C@@]4(C)C/C(=C/n5ccnc5C)C(=O)C(C)(C)[C@@H]4CC[C@@]3(C)[C@]1(C)CC2
2. COC(=O)[C@]12CC[C@@H](C)[C@H](C)[C@H]1C1=CC(=O)[C@@H]3[C@@]4(C)C/C(=C/n5cnnc5)C(=O)C(C)(C)[C@@H]4CC[C@@]3(C)[C@]1(C)CC2

Response:
1: 5.46; 2: 4.90
